Target: Lysine-specific histone demethylase 2 (Homo sapiens, UniProt Q8NB78)
Sequence (Q8NB78 whole entry): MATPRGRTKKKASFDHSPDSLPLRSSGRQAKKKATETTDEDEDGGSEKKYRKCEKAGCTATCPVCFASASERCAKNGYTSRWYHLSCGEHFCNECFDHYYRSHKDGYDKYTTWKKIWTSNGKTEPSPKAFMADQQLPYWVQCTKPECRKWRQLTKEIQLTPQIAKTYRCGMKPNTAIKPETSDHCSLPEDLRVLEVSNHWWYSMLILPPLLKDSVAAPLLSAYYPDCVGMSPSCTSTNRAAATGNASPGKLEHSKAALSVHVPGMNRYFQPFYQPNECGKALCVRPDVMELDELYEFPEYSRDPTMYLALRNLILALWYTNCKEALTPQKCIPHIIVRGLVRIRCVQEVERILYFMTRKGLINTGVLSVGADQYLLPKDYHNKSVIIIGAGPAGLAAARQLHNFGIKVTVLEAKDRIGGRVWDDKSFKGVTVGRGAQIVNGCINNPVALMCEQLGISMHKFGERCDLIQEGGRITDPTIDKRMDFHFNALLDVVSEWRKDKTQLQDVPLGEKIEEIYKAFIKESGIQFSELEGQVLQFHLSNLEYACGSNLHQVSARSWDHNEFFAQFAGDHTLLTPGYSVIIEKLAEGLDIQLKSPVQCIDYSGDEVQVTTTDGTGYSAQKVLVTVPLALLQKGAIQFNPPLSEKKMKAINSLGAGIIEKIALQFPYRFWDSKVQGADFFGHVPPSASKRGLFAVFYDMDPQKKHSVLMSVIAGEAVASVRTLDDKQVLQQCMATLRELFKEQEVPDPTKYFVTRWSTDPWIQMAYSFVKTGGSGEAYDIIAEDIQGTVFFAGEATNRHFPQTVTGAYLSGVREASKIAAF
endpoint-label: pIC50
When answering, recall that pIC50 equals minus log10 of the concentration in mol/L, and write that number alone.

Exercise: Form field: reported pIC50 of N[C@H]1CC[C@H](N[C@@H]2C[C@H]2c2ccccc2)CC1
Solution: 4.89

---

Target: LSD1/CoREST complex (Homo sapiens, UniProt O60341)
Assay: Inhibition of recombinant human KDM1A/CoREST complex expressed in Escherichia coli using [Lys(Me1)4]-Histone H3 (1 to 21 residues)-GGK(biotin) as substrate incubated for 20 mins measured after 1 hr by TR-FRET assay
pIC50: −log10 of the molar value.
Rule: pIC50 under 7 gives F, otherwise T.

Field: example entries. Status: answers known.
CN1CCC(Oc2cccc(OCc3ccccc3NC(=O)c3cc4sccc4n3C)c2)CC1    F
Cn1c(C(=O)Nc2ccccc2OCc2ccncc2)cc2sccc21    F
Cn1c(C(=O)Nc2ccc(COc3ccncc3)cc2)cc2sccc21    F
CCOCc1cccc(NC(=O)c2cc3sccc3n2C)c1COc1ccc(OC[C@@H]2CCNC2)cc1    T
CN1CCN(Cc2ccc(OCc3ccccc3NC(=O)c3cc4sccc4n3C)cc2)CC1    F

Exercise: Reported pIC50 at or above 7? CCN1CCC(Oc2ccc(OCc3ccccc3NC(=O)c3cc4sccc4n3C)cc2)CC1
Solution: F

Exercise: Could you tell me if the measured pIC50 of Cn1c(C(=O)Nc2ccccc2COc2ccc(OC[C@@H]3CCNC3)cc2)cc2sccc21 reaches 7 or more?
Solution: T

Exercise: Check if pIC50 >= 7 (inclusive). Item: Cn1c(C(=O)Nc2ccccc2COc2ccc(NC3CCNCC3)cc2)cc2sccc21
Solution: F
